- assay summary: Moisture balance / vapor sorption (hygroscopicity)
- Assay type: physicochemical
- condition set: vapor sorption, 5% to 95% relative humidity
Where a name gives a salt, the structure may show the parent alone.
measured metric: hygroscopicity

Example entries begin here.
{"compound": "Cc1ncccc1Oc1cc(Sc2ccccn2)cnc1Nc1nc([C@H](O)CO)ns1 [HCl salt Form A]", "hygroscopicity": "hygroscopic"}
{"compound": "Cc1ncccc1Oc1cc(Sc2ccccn2)cnc1Nc1nc([C@H](O)CO)ns1 [MSA salt Form B]", "hygroscopicity": "hygroscopic"}
{"compound": "Cc1ncccc1Oc1cc(Sc2ccccn2)cnc1Nc1nc([C@H](O)CO)ns1 [Amorphous AMG151]", "hygroscopicity": "hygroscopic"}
{"compound": "Cc1ncccc1Oc1cc(Sc2ccccn2)cnc1Nc1nc([C@H](O)CO)ns1 [Form F]", "hygroscopicity": "non-hygroscopic"}
{"compound": "Cc1ncccc1Oc1cc(Sc2ccccn2)cnc1Nc1nc([C@H](O)CO)ns1 [phosphate salt Form A]", "hygroscopicity": "non-hygroscopic"}
{"compound": "Cc1ncccc1Oc1cc(Sc2ccccn2)cnc1Nc1nc([C@H](O)CO)ns1 [fumarate co-crystal Form A]", "hygroscopicity": "non-hygroscopic"}

Determine from records and report hygroscopicity for Cc1ncccc1Oc1cc(Sc2ccccn2)cnc1Nc1nc([C@H](O)CO)ns1 [phosphate salt Form D]
hygroscopic

Determine from records and report hygroscopicity for Cc1ncccc1Oc1cc(Sc2ccccn2)cnc1Nc1nc([C@H](O)CO)ns1 [mono-hydrochloride salt Form C]
hygroscopic
